Measured GI50 values are reported for all entries that follow.
System: SNB-19
Test: NCI tumour cell line growth inhibition, 48 h
The source made the active and inactive calls. Rule as the data show it: active = GI50 up to about 1.1 µM and inactive = higher.

Here is how some molecules turned out for GI50.
O=C1c2ccccc2C(=O)c2oc(Br)cc21    1.5 µM (inactive)
COc1ccc(-c2coc3cc(OC)cc(O)c3c2=O)cc1 [4',7-DIMETHOXY-5-HYDROXYGENISTEIN]    31.4 µM (inactive)
COc1ccc(CNc2cnc3ccc(N)cc3n2)cc1    > 100 µM (inactive)
CC(C)=CC[C@]12CCN[C@H]1N(S(=O)(=O)c1ccccc1)c1ccccc12    21.5 µM (inactive)
Cc1cc(C)c(-c2noc(-c3ccc(Cl)cc3)c2C2=NCCCN2)c(C)c1    21.3 µM (inactive)

Pending molecule:
Prompt: Hello, please tell me recorded GI50 for this one: O=C(O)COc1ccc(C(=O)/C(SS/C(C(=O)c2ccc(OCC(=O)O)c(Cl)c2Cl)=C2\C=C(c3ccc(F)cc3)SS2)=C2/C=C(c3ccc(F)cc3)SS2)c(Cl)c1Cl
Response: 15 µM (inactive)
